# ASSAY DETAILS: xn = mol fraction of the nth substance listed, in the solute-free solvent
# TEST SETTINGS: 323.15 K; x2 = 0.9
Below, each entry is listed with its recorded solubility (g/100 g solution).

MOLECULE: CC(N)C(=O)O (configuration not stated) + O + CO
solubility (g/100 g solution): 11.9
//
MOLECULE: OCCN(CCO)c1nc(N2CCCCC2)c2nc(N(CCO)CCO)nc(N3CCCCC3)c2n1 + CO + O
solubility (g/100 g solution): 22.7
//
MOLECULE: CC(N)C(=O)O (configuration not stated) + O + CC(C)=O
solubility (g/100 g solution): 8.13
//
MOLECULE: S=c1[nH]ncs1 + CC(C)=O + O
solubility (g/100 g solution): 35.3
//
MOLECULE: OCCN(CCO)c1nc(N2CCCCC2)c2nc(N(CCO)CCO)nc(N3CCCCC3)c2n1 + CC(C)O + O
solubility (g/100 g solution): 18.8
//
MOLECULE: S=c1[nH]ncs1 + CCCO + O
solubility (g/100 g solution): 22.2
//
MOLECULE: CC(N)C(=O)O (configuration not stated) + O + CCO
solubility (g/100 g solution): 9.53
//
MOLECULE: S=c1[nH]ncs1 + CCO + O
solubility (g/100 g solution): 26.6
//
MOLECULE: CC(N)C(=O)O (configuration not stated) + O + CC(C)O
solubility (g/100 g solution): 8.23
//
MOLECULE: CC(N)C(=O)O (configuration not stated) + O + CCCO
solubility (g/100 g solution): 9.44
//
MOLECULE: OCCN(CCO)c1nc(N2CCCCC2)c2nc(N(CCO)CCO)nc(N3CCCCC3)c2n1 + CCO + O
solubility (g/100 g solution): 20.7
//
MOLECULE: S=c1[nH]ncs1 + CO + O
solubility (g/100 g solution): 33.2

Origin of the recorded values: the CheMixHub drug solubility set
